The measurements presented in this section are drawn from ChEMBL document CHEMBL1201862.

- System: CAKI-1
- METHOD: NCI tumour cell line growth inhibition, 48 h
Active and inactive are the calls of the source. No stated cut-off is given here; in the data, active = GI50 up to about 1.1 µM and inactive = higher.
OUTCOME_MEASURE: GI50

Prompt line: Tell me reported GI50 for C=C1CN(C(=O)c2cc3cc(OC)c(OC)c(OC)c3[nH]2)c2cc([N+](=O)[O-])ccc21 , tested with CAKI-1.
Response line: > 100 µM (inactive)

Prompt line: Tell me reported GI50 for O=C(CCC(=O)Nc1ccc(Cl)c(Cl)c1)CC(=O)c1ccc(Br)cc1 , tested with CAKI-1.
Response line: > 100 µM (inactive)

Prompt line: Tell me reported GI50 for C#CCn1c2c(c3ccccc3c1=O)C(=O)c1ccccc1-2 , tested with CAKI-1.
Response line: 12 µM (inactive)
